The entries below come with measured Kd values attached.
target: T1, human folate receptor 1 (human, UniProt P15328 25-234); assay: flow cytometry on FOLR1-expressing SKOV3 cells; apparent Kd from the fit of MFI against antibody concentration
T1 construct: also called FOLR1; Folate Receptor-alpha
T1 sequence (P15328 25-234 limits assumed): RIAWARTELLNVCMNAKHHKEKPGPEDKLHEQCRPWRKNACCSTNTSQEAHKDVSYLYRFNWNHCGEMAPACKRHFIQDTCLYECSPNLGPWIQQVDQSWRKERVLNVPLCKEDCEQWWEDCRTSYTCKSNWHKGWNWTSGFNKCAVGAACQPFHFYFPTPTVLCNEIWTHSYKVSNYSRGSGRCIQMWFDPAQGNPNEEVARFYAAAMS
State the answer as a number, implicitly in nM.

// known answers, use as guide
binder	Kd / nM
muFR1-13 (antibody, V domains shown) VH: QVQLKESGPDLVAPSQSLSITCTVSGFSLSRYSVHWIRQPPGKGLEWLGMIWSGGNTDYNSVFKSRLNITKDNSKSQVFLKMNSLQTDDTAIYYCATFDGKVSWFAYWGQGTLVTVSA VL: SIVMTQTPKFLLVSTGDRFTITCKASQSVSNDVLWYQQKPGQSPKLLIYYAYNRYSGVPDRFTGSGYGTDFTFTITTVQSEDLAVYFCQQDHSSPFTFGSGTKLEIKR	0.66
huMov19 (antibody, V domains shown, Resurfaced humanized Mov19, full IgG1/kappa; also called humanized Mov19) VH: QVQLVQSGAEVVKPGASVKISCKASGYTFTGYFMNWVKQSPGQSLEWIGRIHPYDGDTFYNQKFQGKATLTVDKSSNTAHMELLSLTSEDFAVYYCTRYDGSRAMDYWGQGTTVTVSS VL: DIVLTQSPLSLAVSLGQPAIISCKASQSVSFAGTSLMHWYHQKPGQQPRLLIYRASNLEAGVPDRFSGSGSKTDFTLNISPVEAEDAATYYCQQSREYPYTFGGGTKLEIKR	0.07
huFR1-21 (antibody, human IgG1, kappa, V domains shown, unconjugated humanized FR1-21; also called humanized FR1-21) VH: EVQLVESGGDVVKPGGSLKLSCAASGFTFSSYGMSWVRQTPGKGLECVATISSGGSYTYYSPGFQGRFTISRDKSKNTLYLQMSSLKAEDTAMYYCARDGEGGLYAMDYWGQGTSVTVSS VL: DIQMTQSSSSLSVSVGGRVTITCKASDHINNWLAWYQQKPGKAPKLLISGATSLETGVPSRFSGSGSGKDYTLSISSLQPEDVATYYCQQYWSTPFTFGQGTKLEIKR	0.07

The recorded Kd for muFR1-21 (antibody, mouse IgG2b, kappa, V domains shown, murine anti-FOLR1 antibody; also called murine FR1-21) VH: EVKLVESGGDLVKPGGSLKLSCAASGFTFSSYGMSWVRQTPDKRLECVATISSGGSYTYYPDGVKGRFTISRDNAKNTLYLQMSSLKSEDTAMYYCARDGEGGLYAMDYWGQGTSVTVSS VL: DIQMTQSSSYLSVSLGGRVTITCKASDHINNWLAWYQQKPGNAPRLLISGATSLETGVPSRFSGSGSGKDYTLSISSLQTEDVATYYCQQYWSTPFTFGSGTKLEIKR is 0.07

Notebook: muFR1-9 (antibody, V domains shown) VH: QVQLVESGGGLVQPGGSRKLSCAASGFTFSSFGMHWVRQAPEKGLEWVAYISSGSSTFYYADTVKGRFTISRDNPKNTLFLQMTSLRSEDTAMYYCAKELTGTFAYWGQGTLVTVSA VL: DIVLTQSPATLSVTPGDSVSLSCRASQSINNNLHWYQQKSHESPRLLIKYASQSISGIPSRFSGSGSGTDFTLSINSVETEDFGMYFCQQSNSWPQVTFGAGTKLELKR , Kd read as 0.13
